method_summary: Solubility in isotonic phosphate buffer containing PEG 400
Format: physicochemical
condition: organic solvent or mixture; isotonic phosphate buffer (pH 6.8) containing 20% PEG 400
property_label: solubility

For Clc1ccccc1C(c1ccccc1)(c1ccccc1)n1ccnc1 , what is its reported solubility?
~60 µg/mL

---

method_summary: Solubility in isotonic phosphate buffer containing PEG 400
Format: physicochemical
condition: pH 6.8, organic solvent or mixture; phosphate buffer containing 40% PEG 400
property_label: solubility

Value lookup for solubility; key = Clc1ccccc1C(c1ccccc1)(c1ccccc1)n1ccnc1
~430 µg/mL
